Several reports have described pIC50 for Carbonic anhydrase 2 (Homo sapiens); a selection of those results is presented here.
One number for each entry, as −log10 of the molar value.

// below: answered compounds
INSERT INTO results (compound, numericreadout) VALUES
  ('CC(C)CNCc1cc2cc(S(N)(=O)=O)oc2s1', 8.22),
  ('CCOC(=O)c1cccc(CSCc2ccc(S(N)(=O)=O)cc2)c1', 7.23),
  ('NS(=O)(=O)c1cc2c(s1)S(=O)(=O)CCC2=O', 8.30),
  ('CO[C@@H]1O[C@H](CNC(=O)c2ccc(S(N)(=O)=O)cc2)[C@@H](O)[C@H](O)[C@H]1N', 6.92);

Give pIC50 for each of the items listed below.
1. COc1ccc(-c2ccc(S(=O)(=O)NC(P(=O)(O)O)P(=O)(O)O)cc2)cc1
2. CC(C)NCc1cccc(S(=O)(=O)c2csc(S(N)(=O)=O)c2)c1.Cl
3. Cc1ccc(S(=O)(=O)NCC(=O)O)cc1

Output line:
[7.15, 7.66, 5.44]

Give pIC50 for each of the items listed below.
1. CCCCCC/C(=N\O)c1csc(S(N)(=O)=O)c1
2. NS(=O)(=O)c1cc(S(=O)(=O)c2ccc(O)cc2)cs1
3. Cc1ccc(S(=O)(=O)c2coc(S(N)(=O)=O)c2)cc1
4. O=C(O)c1cc(/N=N/c2ccc(S(=O)(=O)Nc3ccccn3)cc2)ccc1O

Output line:
[8.24, 8.30, 8.38, 5.35]

Give pIC50 for each of the items listed below.
1. O=[N+]([O-])c1ccc(S(=O)(=O)NC(P(=O)(O)O)P(=O)(O)O)cc1
2. CCCCCCC(=O)c1csc(S(N)(=O)=O)c1

Output line:
1. 5.74
2. 8.30

Give pIC50 for each of the items listed below.
1. NS(=O)(=O)c1cc2c(s1)S(=O)(=O)C(CCO)CN2 (centres undefined)
2. COCCNCc1cc2cc(S(N)(=O)=O)oc2s1

Output line:
1. 8.72
2. 7.96

* * *

Several reports have described IC50 for Carbonic anhydrase 2 (Homo sapiens); a selection of those results is presented here.
Answers are plain numbers, in nM.

INSERT INTO results (compound, quantitykind, valueunits, numericreadout) VALUES
  ('CCN(CC)Cc1cc(C(=O)c2csc(S(N)(=O)=O)c2)ccc1O.Cl', 'IC50', 'nM', 7),
  ('CCCCCCC(N)c1csc(S(N)(=O)=O)c1 (configuration not stated)', 'IC50', 'nM', 160),
  ('O=P(O)(O)C(NS(=O)(=O)c1ccc(-c2ccccc2)cc1)P(=O)(O)O', 'IC50', 'nM', 1410);

Give IC50 for each of the items listed below.
1. O=[N+]([O-])c1ccc(S(=O)(=O)Nc2ccccc2)cc1
2. CN(C)Cc1cc(C(=O)c2csc(S(N)(=O)=O)c2)ccc1O.Cl
3. CCCCNC(C)c1csc(S(N)(=O)=O)c1 (configuration not stated)
4. O=C(NCCCCNS(=O)(=O)c1ccc(Oc2ccccc2)cc1)P(=O)(O)O

Output line:
1. 7320
2. 6.4
3. 590
4. 100

* * *

Several reports have described pIC50 for Carbonic anhydrase 2 (Homo sapiens); a selection of those results is presented here.
Numbers only, as −log10 of the molar value.

// below: answered compounds
INSERT INTO measurements (samplesmiles, assaytarget, numericreadout) VALUES
  ('O=S(=O)(NC(=S)Nc1ccccc1)c1ccccc1', 'Carbonic anhydrase 2 (Homo sapiens)', 3.38),
  ('NS(=O)(=O)c1cc2cc(CNCCF)sc2o1', 'Carbonic anhydrase 2 (Homo sapiens)', 7.92);

Now examine the next entry.
Input line: I'm curious: which pIC50 was measured for C[C@H](CO)Nc1nc(Nc2ccc(S(N)(=O)=O)cc2)ncc1Br tested on Carbonic anhydrase 2 (Homo sapiens)?
Output line: 6.29
